# assayedSystem: Neu5Ac(a2-6)GlcNAc(b1-4)GlcNAc(b1-4)GlcNAc
# assayDetails: glycan array binding signal (z-score within array); higher = stronger binding
# experimentalParameters: glycan notation: IUPAC condensed, linker removed
The sample as a whole holds a higher share of the strongest signals than the screen did.
Recorded glycan array binding signal (z-score), one value per entry.
measure: glycan array binding signal (z-score)

binder	measure	testValue
ASAL (Allium sativum), P83886 (protein) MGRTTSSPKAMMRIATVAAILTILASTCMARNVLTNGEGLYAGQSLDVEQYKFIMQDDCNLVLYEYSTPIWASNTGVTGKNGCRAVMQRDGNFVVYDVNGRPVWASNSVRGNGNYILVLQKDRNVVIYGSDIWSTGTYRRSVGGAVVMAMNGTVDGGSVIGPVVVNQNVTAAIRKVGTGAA	glycan array binding signal (z-score)	-0.29
XTP3-B-MRH2 (Homo sapiens), Q96DZ1 (protein) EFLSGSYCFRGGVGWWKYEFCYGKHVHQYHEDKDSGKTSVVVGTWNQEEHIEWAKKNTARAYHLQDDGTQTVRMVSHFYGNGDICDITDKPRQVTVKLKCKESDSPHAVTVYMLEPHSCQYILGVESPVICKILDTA	glycan array binding signal (z-score)	0.385
NKR-PIC (Mus musculus) (protein) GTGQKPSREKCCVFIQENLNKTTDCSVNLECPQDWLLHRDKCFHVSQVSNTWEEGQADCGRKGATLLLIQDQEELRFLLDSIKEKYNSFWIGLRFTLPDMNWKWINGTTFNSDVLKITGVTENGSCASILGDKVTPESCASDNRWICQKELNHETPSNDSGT	glycan array binding signal (z-score)	5.02
WGA (Triticum vulgare) (protein) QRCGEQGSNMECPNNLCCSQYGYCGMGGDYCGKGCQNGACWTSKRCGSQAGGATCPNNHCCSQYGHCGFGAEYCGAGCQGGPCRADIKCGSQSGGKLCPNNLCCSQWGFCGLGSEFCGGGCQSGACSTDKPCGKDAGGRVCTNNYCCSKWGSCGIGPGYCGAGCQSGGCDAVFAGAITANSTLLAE	glycan array binding signal (z-score)	3.14
AAA (Anguilla anguilla), Q7SIC1 (protein) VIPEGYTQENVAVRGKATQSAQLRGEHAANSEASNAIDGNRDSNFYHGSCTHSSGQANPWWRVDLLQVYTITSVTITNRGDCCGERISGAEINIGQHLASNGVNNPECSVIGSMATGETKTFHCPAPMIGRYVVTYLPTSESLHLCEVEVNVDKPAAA	glycan array binding signal (z-score)	2.46
Nc3LysM (protein) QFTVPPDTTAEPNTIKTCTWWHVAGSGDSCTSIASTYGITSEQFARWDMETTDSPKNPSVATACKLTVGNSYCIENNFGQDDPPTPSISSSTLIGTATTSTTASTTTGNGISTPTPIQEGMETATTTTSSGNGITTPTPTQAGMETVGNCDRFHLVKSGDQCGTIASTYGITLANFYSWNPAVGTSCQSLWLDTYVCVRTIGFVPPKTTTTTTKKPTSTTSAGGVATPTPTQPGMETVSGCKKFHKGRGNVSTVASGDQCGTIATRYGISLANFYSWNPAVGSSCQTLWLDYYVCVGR	glycan array binding signal (z-score)	-0.143
